Target: hADORA1/CHO (hA1 expressing) cells (Homo sapiens (Human), UniProt P30542)
Sequence (P30542 whole entry): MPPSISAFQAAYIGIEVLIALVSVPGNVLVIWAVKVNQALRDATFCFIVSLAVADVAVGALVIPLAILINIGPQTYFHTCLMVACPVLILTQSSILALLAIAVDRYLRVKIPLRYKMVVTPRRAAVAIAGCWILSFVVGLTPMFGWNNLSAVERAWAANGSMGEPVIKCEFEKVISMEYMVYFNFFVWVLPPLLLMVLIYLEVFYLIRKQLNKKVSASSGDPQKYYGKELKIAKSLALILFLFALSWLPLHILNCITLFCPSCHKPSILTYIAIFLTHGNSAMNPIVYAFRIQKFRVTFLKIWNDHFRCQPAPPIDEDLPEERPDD
Assay: cell-based
Conditions: FLIPR inhibition, 10 μM adenosine, read-out: cAMP & FLIPR IC50 (nM) hA1
In this section we review reported IC50 values for a set of molecules.

{"columns": ["molecule", "system", "reading.unit", "inequality.symbol", "IC50"],
 "data": [
  ["Cc1cc(-c2nc(C(=O)NCc3ccccc3C(F)F)c(N)nc2-c2ccc(F)cc2)cc(C)n1", "hADORA1/CHO (hA1 expressing) cells (Homo sapiens (Human), UniProt P30542)", "nM", "=", 413],
  ["Cn1cc(-c2nc(C(=O)NCc3ncccc3CO)c(N)nc2-c2ncco2)ccc1=O", "hADORA1/CHO (hA1 expressing) cells (Homo sapiens (Human), UniProt P30542)", "nM", "=", 3010],
  ["Cn1cc(-c2nc(C(=O)NCc3ncccc3OC(F)F)c(N)nc2-c2ccc(F)cc2)ccc1=O", "hADORA1/CHO (hA1 expressing) cells (Homo sapiens (Human), UniProt P30542)", "nM", "=", 18],
  ["Cc1cnc2ccc(-c3nc(CNC(=O)[C@H]4CCOC4)c(N)nc3-c3ccc(F)cc3)cn12", "hADORA1/CHO (hA1 expressing) cells (Homo sapiens (Human), UniProt P30542)", "nM", "=", 84],
  ["Cn1cc(-c2nc(C(=O)NCc3c(F)cccc3Cl)c(N)nc2-c2ncco2)ccc1=O", "hADORA1/CHO (hA1 expressing) cells (Homo sapiens (Human), UniProt P30542)", "nM", "=", 31],
  ["CO[C@H]1C[C@H](NC(=O)c2nc(-c3ccc4ncc(C)n4c3)c(-c3ncco3)nc2N)C1", "hADORA1/CHO (hA1 expressing) cells (Homo sapiens (Human), UniProt P30542)", "nM", "=", 10000],
  ["Cc1cnc2ccc(-c3nc(CNC(=O)[C@@H]4CCCO4)c(N)nc3-c3ccc(F)cc3)cn12", "hADORA1/CHO (hA1 expressing) cells (Homo sapiens (Human), UniProt P30542)", "nM", "=", 26],
  ["Cc1cnc2ccc(-c3nc(C(=O)NC(C)C4CCCO4)c(N)nc3-c3ncco3)cn12 (single isomer, unassigned; isomer 1) [Example 266]", "hADORA1/CHO (hA1 expressing) cells (Homo sapiens (Human), UniProt P30542)", "nM", ">", 10000],
  ["CN1CCCC1CNC(=O)c1nc(-c2ccc3ncc(Cl)n3c2)c(-c2ncco2)nc1N (stereo in doubt)", "hADORA1/CHO (hA1 expressing) cells (Homo sapiens (Human), UniProt P30542)", "nM", ">", 10000]
]}
